Origin of values: paper PMC4431734

Target: T1, NeqSSB-like protein (Nanoarchaeum equitans Kin4-M, UniProt Q74MP9 2-243)
T1 sequence: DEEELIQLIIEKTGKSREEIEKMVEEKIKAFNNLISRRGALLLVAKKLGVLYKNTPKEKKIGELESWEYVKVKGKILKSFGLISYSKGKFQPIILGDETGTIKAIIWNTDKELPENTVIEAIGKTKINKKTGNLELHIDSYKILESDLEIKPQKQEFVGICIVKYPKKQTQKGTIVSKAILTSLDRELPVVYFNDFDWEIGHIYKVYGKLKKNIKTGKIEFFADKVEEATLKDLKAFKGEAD
Assay: SPR; kon 7.91e3 1/Ms; koff 2.39e-2 1/s; EMSA: 20 mM Tris-HCl pH 7.5, 100 mM NaCl, 1 mM EDTA, 25 C, 10 min; fluorescence: 20 mM Tris-HCl pH 7.5, 1 mM EDTA, 2/100/500 mM NaCl, 25 C; SPR: 10 mM Hepes pH
Conditions: protein: recombinant; tags: N-terminal His tag with TEV site, removed by TEV; label: 3' biotin
READOUT_NAME: pKd
FYI, pKd means -log10 of a concentration in mol per litre.

query: Given the binder ssDNA 60-mer (ssDNA) DNA: AATTCTGGGTGTGTGGGTGTGTGGGTGTGTGGGTGTGGTCAAGTTGACTACGTATACATC , what is its reported pKd?
result: 5.58
